reported-metric: melting point (°C)
Answers are plain numbers, in °C.

Fc1cccc(-c2ncccc2N2CCN(c3ccncc3)CC2)c1    184.88

Look at each molecule and report its melting point.
1. c1cnc(-c2ccc(N3CCCCC3)cc2)c(N2CCN(c3ccncc3)CC2)c1
2. c1cnc(-c2cc3ccccc3s2)c(N2CCN(c3ccncc3)CC2)c1
3. Fc1ccc(-c2ncccc2N2CCN(c3ccncc3)CC2)cc1
4. c1cnc(-c2cccc3ccccc23)c(N2CCN(c3ccncc3)CC2)c1

1: 92; 2: 224; 3: 173.62; 4: 90

###

Would you kindly list CC50 at 3 days for each of these compounds?
Experiment: Cytotoxicity in HeLa cells (ATP content, ATPlite kit)
Assay type: cell-based
Details: human, three days incubation, read-out: TOX HELA pCC50 (converted)
Give bare numbers, in µM.

Cc1ccc(-c2ccc(-c3ncccc3N3CCN(c4ccncc4)CC3)cc2)o1    11

Quick batch: CC50 at 3 days for everything below.
1. Clc1ccc(-c2ncccc2N2CCN(c3ccncc3)CC2)cc1
2. c1ccc(Oc2nccnc2N2CCN(c3ccncc3)CC2)cc1
3. Cn1ccc2c(-c3ncccc3N3CCN(c4ccncc4)CC3)cccc21
4. c1cnc(-c2ccc3cc[nH]c3c2)c(N2CCN(c3ccncc3)CC2)c1

0.891
87.1
45.7
53.7

Taken from patent US10150761B2.
